Data credit: paper PMC8931498

# PROTOCOL: Plasma pharmacokinetics over 2 h after oral ibogaine in wild-type, Oatp1a/1b-/-, Oatp1a/1b-/-;1B1tg and Oatp1a/1b-/-;1B3tg mice
# Assay type: in vivo
# TEST_CONDITIONS: female, Oatp1a/1b-/-;1B3tg, mouse, plasma, po, 10 mg/kg
OUTCOME_MEASURE: Cmax (ng/mL)
Numbers only, in ng/mL.

| COMPOUND | UNITS_TEXT | Cmax |
| --- | --- | --- |
| CCC1CC2CC3c4[nH]c5ccc(OC6OC(C(=O)O)C(O)C(O)C6O)cc5c4CCN(C2)C13 (centres unmarked) [Noribogaine glucuronide, noribogaine glucuronide] | ng/mL | 162 |

Shifting focus to the compound that follows.
Q: I would be grateful if you could share the reported Cmax for CCC1CC2CC3c4[nH]c5ccc(O)cc5c4CCN(C2)C13 (centres unmarked) [Noribogaine, 12-hydroxyibogamine] .
Ans: 411
